Values were extracted from patent US8865724B2.

measurementType: melting point

Cc1ncc(Cn2nnc(COC(=O)c3ccccc3Cl)c2I)c(N)n1 : 185 to 187 °C
Cc1ccc(OCC(=O)OCc2cn(Cc3cnc(C)nc3N)nn2)cc1 : 149 to 151 °C
Cc1ncc(Cn2cc(CNC(=O)c3ccc([N+](=O)[O-])cc3Cl)nn2)c(N)n1 : > 260 °C
Cc1ncc(Cn2cc(COc3ccccc3C)nn2)c(N)n1 : 153 to 154 °C
Cc1ncc(Cn2nnc(COc3ccc(Cl)cc3C)c2I)c(N)n1 : 163 to 165 °C

Please go through the list and note melting point for each compound.
1. Cc1ncc(Cn2nnc(CNC(=O)c3cccc(Cl)c3)c2I)c(N)n1
2. Cc1ncc(Cn2cc(CNC(=O)c3ccc([N+](=O)[O-])cc3)nn2)c(N)n1

["197 to 198 °C", "239 to 240 °C"]
